Examples of binders with documented ELISA binding mIL-12RB2/control follow.
# SYSTEM NAME: T1, biotinylated recombinant mouse IL-12Rβ2 (mouse, UniProt P97378 24-637, random biotinylated)
# T1 construct: Recombinant protein produced in-house, biotinylated; also called mIL-12RB2; mouse IL-12RB2
# T1 sequence: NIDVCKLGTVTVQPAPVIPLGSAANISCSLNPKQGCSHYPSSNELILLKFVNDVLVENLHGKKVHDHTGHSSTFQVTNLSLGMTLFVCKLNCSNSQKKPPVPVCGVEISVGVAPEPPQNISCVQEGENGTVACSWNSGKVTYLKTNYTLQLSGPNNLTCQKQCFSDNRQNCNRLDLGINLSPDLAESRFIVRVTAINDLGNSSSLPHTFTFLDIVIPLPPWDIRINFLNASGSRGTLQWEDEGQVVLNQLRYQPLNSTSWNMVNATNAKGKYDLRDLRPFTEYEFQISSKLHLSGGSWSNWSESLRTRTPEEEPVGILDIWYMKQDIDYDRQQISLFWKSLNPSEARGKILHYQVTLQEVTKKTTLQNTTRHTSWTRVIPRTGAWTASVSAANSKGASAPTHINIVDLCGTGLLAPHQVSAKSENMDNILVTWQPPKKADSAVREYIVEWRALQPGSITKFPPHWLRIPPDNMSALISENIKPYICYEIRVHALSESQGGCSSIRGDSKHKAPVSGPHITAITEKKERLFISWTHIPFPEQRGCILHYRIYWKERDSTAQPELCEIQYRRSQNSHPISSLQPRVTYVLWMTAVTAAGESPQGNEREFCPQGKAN
# TEST DESCRIPTION: ELISA, periplasmic extract on biotinylated mIL-12Rβ2, signal over control wells
RESULT TYPE: ELISA binding mIL-12RB2/control

[[record]]
binder = "anti-IL-12Rβ2 VHH clone 20509 (VHH, not shown: small tags and cut ends, tested as periplasmic extract; also called 3CAM30) VHH: QVQLQESGGGLVQAGGSLRLSCAAAGRTFSSYGMGWFRQAPGKERDFVAAISRDARITDYADSVKGRFTISRDNAKNTAYLQMNSLNPEDTAVYFCAAAYTYSGSHYVTARSSDYHTWGQGTQDTVSS"
result_type = "ELISA binding mIL-12RB2/control"
endpoint_result = "10 ratio"

[[record]]
binder = "anti-IL-12Rβ2 VHH clone 20460 (VHH, not shown: small tags and cut ends, tested as periplasmic extract; also called 3CRM63) VHH: QVQLQESGGGLVQAGGSLRLSCAASGFTLGSYAMSWVRQAPGKGLEWVSSISSSGTNTNYADSVKGRFTISRDNAKNTLYLQMNSLKPEDTAVYYCAKASQNHSPPGQGTPVTVSS"
result_type = "ELISA binding mIL-12RB2/control"
endpoint_result = "16.6 ratio"

[[record]]
binder = "anti-IL-12Rβ2 VHH clone 20500 (VHH, not shown: small tags and cut ends, tested as periplasmic extract; also called 2CAM81) VHH: QVQLQESGGGLVQPGGSLRLSCAASGFTFSSYGMGWFRQAPGKEREFVAAISRDARITDYADSVKGRFTISRDNAKNTAYLEMNSLNPEDTAVYFCAAAYTYSGSHYVTARSSDYHSWGQGTQVTVSS"
result_type = "ELISA binding mIL-12RB2/control"
endpoint_result = "24 ratio"

[[record]]
binder = "anti-IL-12Rβ2 VHH clone 20518 (VHH, not shown: small tags and cut ends, tested as periplasmic extract; also called 2CRMS15) VHH: QVQLQESGGGLVQPGGSLRLSCTASGSIFAIDDMYWYRQAPGRQREFVAYITATNSANYLDSVNGRFTISRDNAKNSVYLQMNSLKPEDTAVYYCNAKQIVGFQIDEYWGQGTQVTVSS"
result_type = "ELISA binding mIL-12RB2/control"
endpoint_result = "4.43 ratio"

